Listed below: koff values for each entry.
Assay Target: T1, cynomolgus CD3 epsilon (cynomolgus monkey, UniProt Q95LI5 22-117, limits assumed)
T1 construct: Recombinant protein; also called cyno CD3E
T1 sequence: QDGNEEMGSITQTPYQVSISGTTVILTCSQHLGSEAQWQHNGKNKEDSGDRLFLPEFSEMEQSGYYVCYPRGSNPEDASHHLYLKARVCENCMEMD
Test Method Notes: SPR (Biacore), antibody captured, cynomolgus CD3 epsilon analyte
Express your answer in s⁻¹, writing the number without its unit.

| Binder | Observed Value |
| --- | --- |
| 2037-B10_Hc-S107D (antibody, human IgG1, lambda, V domains shown, human IgG1, lambda; also called SRP 2037 S107D; 2037-B10_VH-S107D) VH: EVQLVESGGGLVKPGGSLRLSCAASGFTFNKYAMNWVRQAPGKGLEWVARIRTKYNNYATYYADSVKDRFTISRDDSKNTAYLQMNSLKTEDTAVYYCVRHGNFGNDYISYWAYWGQGTPVTVSS VL: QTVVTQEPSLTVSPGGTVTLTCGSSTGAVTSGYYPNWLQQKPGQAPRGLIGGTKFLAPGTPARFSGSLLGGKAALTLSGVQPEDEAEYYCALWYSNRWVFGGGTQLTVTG | 0.00034 |
| SRP 2037-B10 S107D/LC6 (antibody, human IgG1, kappa, V domains shown, human IgG1, kappa; also called 2037-B10 IgG S107D Lc6) VH: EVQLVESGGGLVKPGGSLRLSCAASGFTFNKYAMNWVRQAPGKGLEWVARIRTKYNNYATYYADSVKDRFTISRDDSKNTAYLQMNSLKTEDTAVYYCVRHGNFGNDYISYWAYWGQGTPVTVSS VL: DIQMTQSPSSLSASVGDRVTITCGSSTGAVTSGYYPNWLQQKPGQAPRGLIGGTKFLAPGVPSRFSGSLSGGKATLTISSLQPEDFATYYCALWYSNRWVFGGGTKVEIKR | 0.000558 |
| 2037-B10_Hc-Y55D (antibody, human IgG1, lambda, V domains shown, human IgG1, lambda; also called SRP 2037 Y55D; 2037-B10_VH-Y55D) VH: EVQLVESGGGLVKPGGSLRLSCAASGFTFNKYAMNWVRQAPGKGLEWVARIRTKDNNYATYYADSVKDRFTISRDDSKNTAYLQMNSLKTEDTAVYYCVRHGNFGNSYISYWAYWGQGTPVTVSS VL: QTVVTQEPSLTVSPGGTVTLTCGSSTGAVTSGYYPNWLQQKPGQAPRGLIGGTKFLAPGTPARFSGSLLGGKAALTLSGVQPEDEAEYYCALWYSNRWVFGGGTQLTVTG | 0.00058 |

For the binder SRP 2037-B10 F104D/LC6 (antibody, human IgG1, kappa, V domains shown, human IgG1, kappa) VH: EVQLVESGGGLVKPGGSLRLSCAASGFTFNKYAMNWVRQAPGKGLEWVARIRTKYNNYATYYADSVKDRFTISRDDSKNTAYLQMNSLKTEDTAVYYCVRHGNDGNSYISYWAYWGQGTPVTVSS VL: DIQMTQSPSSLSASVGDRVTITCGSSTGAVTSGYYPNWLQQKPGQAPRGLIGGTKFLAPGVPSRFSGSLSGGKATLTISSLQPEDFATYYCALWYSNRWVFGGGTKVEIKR , what koff is on record?
0.00165

// koff lookup, key: SRP 2037-B10 Y61D/LC6 (antibody, human IgG1, kappa, V domains shown, human IgG1, kappa) VH: EVQLVESGGGLVKPGGSLRLSCAASGFTFNKYAMNWVRQAPGKGLEWVARIRTKYNNYATDYADSVKDRFTISRDDSKNTAYLQMNSLKTEDTAVYYCVRHGNFGNSYISYWAYWGQGTPVTVSS VL: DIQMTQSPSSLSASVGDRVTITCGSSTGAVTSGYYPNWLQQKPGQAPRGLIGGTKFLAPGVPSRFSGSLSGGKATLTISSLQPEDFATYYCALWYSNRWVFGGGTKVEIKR
0.00154
